details: buffer; pH 7.4; 6.0 h; 150.0 µM
Entries annotated with measured solubility kinetic

Use these answered entries as a reference point.
1. COc1nccc(-c2nc(Nc3ccc(F)c(F)c3)c3ccccc3n2)c1OC :: < 0.001 mg/mL
2. COc1ccc(NS(=O)(=O)c2ccc(C)cc2)cc1C(=O)Nc1nc(-c2ccccc2)cs1 :: < 0.001 mg/mL
3. C#CCNC(=O)c1nc(-c2cccnc2)c2ccccn12 :: > 0.061 mg/mL

INPUT: Query (molecule): `CCN(CC)CCNC(=O)c1c(C)[nH]c(C=C2C(=O)Nc3ccc(F)cc32)c1C` ; field requested: solubility kinetic
OUTPUT: > 0.059 mg/mL

INPUT: Any idea what its solubility kinetic is? The molecule is `Clc1ccc(C2(c3ccc(-c4cn[nH]c4)cc3)CCNCC2)cc1`
OUTPUT: > 0.05 mg/mL

INPUT: Which solubility kinetic is listed for `Cc1ccc(C(=O)Nc2nc3nc(C)cc(=O)n3[nH]2)cc1` ?
OUTPUT: > 0.042 mg/mL

INPUT: Suppose we examine the molecule `Cc1ccc(-n2c(=O)c3oc4ccccc4c3n(CC(=O)Nc3ccc(F)c(Cl)c3)c2=O)cc1C` ; what solubility kinetic value has been reported?
OUTPUT: < 0.001 mg/mL

The reported measurements were obtained from PubChem BioAssay AID1645848.
